# target.under.test: FLNA pentapeptide of SEQ ID NO: 1 (Bn-VAKGL) (Homo sapiens)
# method.description: FITC-NLX-based FLNA screening assay (inhibition of FITC-naloxone binding to Bn-VAKGL on streptavidin plates)
# condition: read-out: Percent Binding Inhibition, FLNA-binding compound 0.1 μM; 10 nM FITC-NLX
Mark label 0 for inhibition at 0.1 µM values under 50%, and label 1 for everything at or above.

>  <compound>
CN1CCC2(CC1)OCCN2S(=O)(=O)c1ccc(S(C)(=O)=O)cc1 [Compound C0106M]

>  <label>
label 1

$$$$
>  <compound>
C=CCN1CC[C@]23c4c5ccc(O)c4O[C@H]2C(=O)CC[C@@]3(O)[C@H]1C5 [Naloxone Control, naloxone, reference compound]

>  <label>
label 0

$$$$
>  <compound>
COc1c2c(cc3c1C(CC(=O)c1cccc(C(F)(F)F)c1)[N+](C)(C)CC3)OCO2 (centres unmarked)

>  <label>
label 1

$$$$
>  <compound>
COc1ccc(S(=O)(=O)N2CCOC23CCN(C)CC3)cc1 [Compound C0088M]

>  <label>
label 1

$$$$
>  <compound>
COc1c2c(cc3c1C(CC(=O)c1ccc(O)c(C)c1)[N+](C)(C)CC3)OCO2 (centres unmarked)

>  <label>
label 0

$$$$
>  <compound>
COc1ccc(CCC(O)CC2c3c(cc4c(c3OC)OCO4)CC[N+]2(C)C)cc1 (centres unmarked)

>  <label>
label 0

$$$$
>  <compound>
Cc1ccc(S(=O)(=O)N2CCC3(CC2)OCCN3S(=O)(=O)c2ccc(C)cc2)cc1

>  <label>
label 0

$$$$
>  <compound>
CS(=O)(=O)c1ccc(S(=O)(=O)N2CCOC23CCNCC3)cc1 [Compound C0116M]

>  <label>
label 1

$$$$
>  <compound>
COCOc1ccc(CCC(=O)CC2c3c(cc4c(c3OC)OCO4)CC[N+]2(C)C)cc1 (centres unmarked)

>  <label>
label 1

$$$$
>  <compound>
COc1ccc(CCC(=O)CC2c3c(cc4c(c3OC)OCO4)CC[N+]2(C)C)cc1OC (centres unmarked)

>  <label>
label 0

$$$$
>  <compound>
COc1ccc(OC)c(CCC(=O)CC2c3c(cc4c(c3OC)OCO4)CC[N+]2(C)C)c1 (centres unmarked)

>  <label>
label 0

$$$$
>  <compound>
COc1ccc(S(=O)(=O)N2CCC3(CC2)OCCN3S(=O)(=O)c2ccc(C(C)=O)cc2)cc1

>  <label>
label 0

$$$$
>  <compound>
COc1ccc(OCC(O)CN2CC(C)OC(C)C2)cc1 (centres unmarked)

>  <label>
label 0

$$$$
>  <compound>
COc1cccc(OC)c1C(=O)CC1c2c(cc3c(c2OC)OCO3)CC[N+]1(C)C (centres unmarked)

>  <label>
label 0

$$$$

----------
# Test system: mu opiate receptor (MOR)
# method.description: MOR agonist activity using [35S]GTPγS binding assay in striatal membranes
# Type: biochemical
# condition: Series B; 1 μM compound + β-FNA, relative to DAMGO + BFNA
Simple rule here: % DAMGO + BFNA less than 200% is 1.0, otherwise 0.0.

>  <molecule>
COc1ccc(CCCCC2c3c(cc4c(c3OC)OCO4)CC[N+]2(C)C)cc1 (centres unmarked) [Compound B0056]

>  <target.under.test>
mu opiate receptor (MOR)

>  <label>
1.0

$$$$
>  <molecule>
COc1ccc(CCC(O)CC2c3c(cc4c(c3OC)OCO4)CCN2C)cc1 (centres unmarked) [Compound B0048]

>  <target.under.test>
mu opiate receptor (MOR)

>  <label>
0.0

$$$$
>  <molecule>
COc1c2c(cc3c1C(CC(=O)Cc1ccccc1C)[N+](C)(C)CC3)OCO2 (centres unmarked) [Compound B0031]

>  <target.under.test>
mu opiate receptor (MOR)

>  <label>
1.0

$$$$
>  <molecule>
COc1c2c(cc3c1C(CC(O)CCc1ccccc1)N(C)CC3)OCO2 (centres unmarked) [Compound B0051]

>  <target.under.test>
mu opiate receptor (MOR)

>  <label>
0.0

$$$$
>  <molecule>
COc1c2c(cc3c1C(CC(=O)c1ccc(O)c(C)c1)[N+](C)(C)CC3)OCO2 (centres unmarked) [Compound B0002]

>  <target.under.test>
mu opiate receptor (MOR)

>  <label>
1.0

$$$$
>  <molecule>
COc1cccc(CC(=O)CC2c3c(cc4c(c3OC)OCO4)CC[N+]2(C)C)c1OC (centres unmarked) [Compound B0038]

>  <target.under.test>
mu opiate receptor (MOR)

>  <label>
0.0

$$$$
>  <molecule>
COc1c2c(cc3c1C(CC(=O)c1ccc(N4CCOCC4)cc1)[N+](C)(C)CC3)OCO2 (centres unmarked) [Compound B0004]

>  <target.under.test>
mu opiate receptor (MOR)

>  <label>
1.0

$$$$
>  <molecule>
COc1cc(CC(=O)CC2c3c(cc4c(c3OC)OCO4)CC[N+]2(C)C)cc(OC)c1OC (centres unmarked) [Compound B0008]

>  <target.under.test>
mu opiate receptor (MOR)

>  <label>
1.0

$$$$

----------
# System: mu opiate receptor (MOR)
# method.description: MOR agonist activity using [35S]GTPγS binding assay in striatal membranes
# Format: biochemical
# condition: 1 μM compound
Binary label based on MOR agonist activity ([35S]GTPγS binding), FLNA-Binding Compound as Agonist 1 μM with cut-off 200%: below gives yes, not below gives no.

>  <compound>
CC1CCC(C(C)C)C(OCC(O)CN(C(C)C)C(C)C)C1 (stereo not drawn)

>  <label>
no

$$$$
>  <compound>
OC(COc1ccc(Br)c(F)c1)CN1CCc2ccccc2C1 (stereo not drawn)

>  <label>
yes

$$$$
>  <compound>
CC(=O)c1ccc(OCC(O)CN2CC(C)OC(C)C2)cc1 (stereo not drawn)

>  <label>
no

$$$$
>  <compound>
CC1CCC(C(C)C)C(OCC(O)CN2CCCC2)C1 (stereo not drawn)

>  <label>
yes

$$$$
>  <compound>
OC(COc1ccc(Br)c(F)c1)CN1CCSCC1 (stereo not drawn)

>  <label>
yes

$$$$
>  <compound>
CC1CN(CC(O)COc2cccc(N(C)C)c2)CC(C)O1 (stereo not drawn)

>  <label>
no

$$$$
>  <compound>
CC1CN(CC(O)COc2ccccc2C(C)C)CC(C)O1 (stereo not drawn)

>  <label>
no

$$$$
>  <compound>
CC1CN(CC(O)COc2cccc(F)c2)CC(C)O1 (stereo not drawn)

>  <label>
no

$$$$
>  <compound>
CC1CN(CC(O)COc2ccc(Br)c(F)c2)CC(C)O1 (stereo not drawn)

>  <label>
no

$$$$
>  <compound>
CC1CCC(C(C)C)C(OCC(O)CN2CCN(CCCN3CCOCC3)CC2)C1 (stereo not drawn)

>  <label>
yes

$$$$
>  <compound>
CC1CCC(C(C)C)C(OCC(O)CN2CCOCC2)C1 (stereo not drawn)

>  <label>
yes

$$$$
>  <compound>
CN(C)c1cccc(OCC(O)CN2CCc3ccccc3C2)c1 (stereo not drawn)

>  <label>
yes

$$$$
>  <compound>
CC1CCC(C(C)C)C(OCC(O)CN2CCC(=O)CC2)C1 (stereo not drawn)

>  <label>
yes

$$$$
>  <compound>
COc1ccc(OCC(O)Cn2ccc3ccccc32)cc1 (stereo not drawn)

>  <label>
no

$$$$
>  <compound>
CC1CCC(C(C)C)C(OCC(O)CN2CCN(C)CC2)C1 (stereo not drawn)

>  <label>
yes

$$$$
>  <compound>
COc1ccc(OCC(O)CN2CCCc3ccccc32)cc1 (stereo not drawn)

>  <label>
no

$$$$
>  <compound>
OC(COc1cccc(C(F)(F)F)c1)CN1CCc2ccccc2C1 (stereo not drawn)

>  <label>
yes

$$$$
>  <compound>
CC1CCC(C(C)C)C(OCC(O)CN2CCN(CCN3CCCCC3)CC2)C1 (stereo not drawn)

>  <label>
no

$$$$
>  <compound>
CC1CN(CC(O)COc2ccc(Br)c(Cl)c2)CC(C)O1 (stereo not drawn)

>  <label>
no

$$$$
>  <compound>
CC1CCC(C(C)C)C(OCC(O)CN2CCCCCCC2)C1 (stereo not drawn)

>  <label>
yes

$$$$
>  <compound>
CC1CN(CC(O)COC2CCCCC2)CC(C)O1 (stereo not drawn)

>  <label>
no

$$$$
>  <compound>
COc1ccc(OCC(O)CN2CCOc3ccccc32)cc1 (stereo not drawn)

>  <label>
yes

$$$$
>  <compound>
CC1CN(CC(O)COc2ccccc2Br)CC(C)O1 (stereo not drawn)

>  <label>
no

$$$$
>  <compound>
Cc1cccc(OCC(O)CN2CC(C)OC(C)C2)c1 (stereo not drawn)

>  <label>
no

$$$$
>  <compound>
COc1ccc(OCC(O)CN2CCc3ccccc3C2)cc1 (stereo not drawn)

>  <label>
yes

$$$$
>  <compound>
CC1CCC(C(C)C)C(OCC(O)CN2CCCCC2)C1 (stereo not drawn)

>  <label>
no

$$$$
>  <compound>
CC1CCN(CC(O)COC2CC(C)CCC2C(C)C)CC1 (stereo not drawn)

>  <label>
yes

$$$$
>  <compound>
CC1CCC(C(C)C)C(OCC(O)CN2CCCCC2=O)C1 (stereo not drawn)

>  <label>
yes

$$$$
>  <compound>
CC1CCC(C)C(OCC(O)CN2CC(C)OC(C)C2)C1 (stereo not drawn)

>  <label>
no

$$$$
>  <compound>
CC1CCC(C(C)C)C(OCC(CN2CC(C)OC(C)C2)NCc2ccccc2)C1 (stereo not drawn)

>  <label>
no

$$$$
>  <compound>
CC1CCC(C(C)C)C(OCC(O)CN2CCN(CCN3CCOCC3)CC2)C1 (stereo not drawn)

>  <label>
no

$$$$
>  <compound>
CC1CCC(C(C)C)C(OCC(O)CN2CC(C)OC(C)C2)C1 (stereo not drawn) [Compound A3333]

>  <label>
no

$$$$
>  <compound>
CC1CCCC(OCC(O)CN2CC(C)OC(C)C2)C1 (stereo not drawn)

>  <label>
no

$$$$
>  <compound>
CC1CCC(C(C)C)C(OCC(O)CN2CC(C)CC(C)C2)C1 (stereo not drawn)

>  <label>
no

$$$$
>  <compound>
CC1CCC(C(C)C)C(OCC(O)CN2CCCN(C)CC2)C1 (stereo not drawn)

>  <label>
no

$$$$

Just for reference, patent US10363239B2 is where these values come from.
